# Protocol: 50% inhibitory concentration against phosphodiesterase 5 (PDE5) from porcine platelets
pIC50: −log10 of the molar value.
Kind request: treat 9 as inclusive, so pIC50 at 9 or higher is T, anything lower is F.

>>> group("COc1ccc(CNc2nnc(NCc3cccnc3)c3ccc(C#N)cc23)cc1Cl")
"F"
>>> group("COc1ccc(CNc2nnc(N3CCC(=O)CC3)c3ccc(C#N)cc23)cc1Cl")
"T"
>>> group("COc1ccc(CNc2nnc(N3CCC(O)CC3)c3ccc([N+](=O)[O-])cc23)cc1Cl")
"T"
>>> group("COc1ccc(CNc2nnc(N3CCC(C(=O)O)CC3)c3ccc(C#N)cc23)cc1Cl")
"F"
>>> group("COc1ccc(CNc2nnc(Cl)c3ccc(C#N)cc23)cc1Cl")
"F"
>>> group("COc1ccc(CNc2nnc(NCCCO)c3ccc(C#N)cc23)cc1Cl")
"F"
>>> group("COc1ccc(CNc2nnc(N3CCC(O)CC3)c3ccc(C(N)=O)cc23)cc1Cl")
"F"
